# Tested on: CD2F1 mice, L1210 leukemia ip, survival T/C
# method-description: NCI In Vivo Anticancer Drug Screen. Data for tumor model L1210 Leukemia (intraperitoneal) in CD2F1 (CDF1) mice
# recorded-conditions: endpoint: mean survival time; dose: 50.0 mg/kg/injection; schedule: Q01DX009 (ip); vehicle: Klucel (hydroxypropylcellulose) (HPC); higher = longer survival
Inconclusive results and toxic doses are left out.
For each of the compounds below, state its T/C.

Example entries and their recorded answers appear below.
COc1cccc(C(O)c2ccncc2C)c1OC (stereo unspecified) :: 97 % of control
Cc1cncn1Cc1ccccc1 :: 94 % of control
CC12CCC(C/C1=C\C#N)C(C)(C)O2 (stereo unspecified) :: 97 % of control
CC1(C)OCC(C(=O)C(OC(=O)c2ccccc2)C2COC(C)(C)O2)O1 (stereo unspecified) :: 94 % of control
O=[N+]([O-])c1ccc(/C=N\N=C\c2ccc([N+](=O)[O-])cc2)cc1 :: 106 % of control

Batch of 4 compounds: report T/C for each.
1. CC1(OC(=O)c2ccccc2)CC(C)(C)[N+]([O-])=N1 (stereo unspecified)
2. CC(C)CC(=O)NC(C(=O)NC(C(=O)NC(CC(C)C)C(O)CC(=O)NC(C)C(=O)NC(CC(C)C)C(O)CC(=O)O)C(C)C)C(C)C (stereo unspecified)
3. OCC(O)C(O)C(O)C(O)C(O)CO (stereo unspecified)
4. Nc1ncnc2nc(SCc3ccccc3)[nH]c12

Response:
1. 96 % of control
2. 94 % of control
3. 98 % of control
4. 100 % of control

Batch of 2 compounds: report T/C for each.
1. CC(=O)OC1CCC2(C)C(=CC=C3C2CCC2(C)C3CCC2C(C)/C=C/C(C)C(C)C)C1 (stereo unspecified)
2. CCCCCCCCCc1nc(N)nc(NCCCC)n1

Response:
89 % of control
112 % of control

###

# Test system: CD2F1 mice, L1210 leukemia ip, survival T/C
# method-description: NCI In Vivo Anticancer Drug Screen. Data for tumor model L1210 Leukemia (intraperitoneal) in CD2F1 (CDF1) mice
# recorded-conditions: endpoint: mean survival time; dose: 25.0 mg/kg/injection; schedule: Q04DX002 (ip); vehicle: saline with Tween-80; higher = longer survival
# Procedure: The antitumor activity of compounds was measured in mice bearing transplantable tumors. Survival or tumor size were measured and the results are expressed as the measurement made in the treated group (T) divided by the measurement made in the vehicle treated control group (C). The tumor model used in this assay is L1210 Leukemia (intraperitoneal) in CD2F1 (CDF1) mice
Toxic doses and inconclusive results are not listed.
reported-endpoint: T/C

Example entries and their recorded answers appear below.
CCCCCCCCCCCCCCCCNS(=O)(=O)c1ccc2sc(SC)nc2c1 :: 93 % of control
O=P(CP(c1ccccc1)c1ccccc1)(c1ccccc1)c1ccccc1 :: 96 % of control
CC1(O)CSC(C)(O)CS1 (stereo not given) :: 104 % of control

Batch of 6 compounds: report T/C for each.
1. O=C(O)CCC(=O)NNC(=O)c1cccnc1
2. COc1ccc(NC(=O)Nc2cccc(Cl)c2)c(Cl)c1
3. C[P+]1(c2ccccc2)CCC(N)=C(C#N)C1 (stereo not given)
4. Cc1ccc(C(C)NC2=NCCO2)c(C)c1 (stereo not given)
5. O=C(O)c1ccccc1C(=O)N1CCCCC1
6. CCOc1ccc(OCC)c(NC(=O)Nc2cccc(Cl)c2)c1

Response:
107 % of control
88 % of control
97 % of control
91 % of control
90 % of control
92 % of control

What the record says about `O=C1c2ccc([N+](=O)[O-])cc2-c2c1cccc2[N+](=O)[O-]` : T/C is 95 % of control
